# Test system: Staphylococcus epidermidis
# Test Protocol: microbe, parasite or virus in culture
# Type: functional
# Condition Parameters: ATCC 14990, 24 h
# Description: Antibacterial activity against Staphylococcus epidermidis ATCC 14990 after 24 hrs by CLSI broth microdilution assay
Reported MIC by item:
Reply numerically in µM, unit not repeated.

input: May I ask what MIC has been recorded for `CCCCc1cn(Cc2ccccc2)n[n+]1Cc1ccc(C(C)(C)C)cc1` ?
output: 8

input: Cool, now `CCCCCCCCCCCCc1cn(-c2ccc(C)cc2)n[n+]1Cc1ccc(C(C)(C)C)cc1`
output: 2

input: Same again, this time with `CCCCCCCCc1cn(Cc2ccccc2)n[n+]1Cc1ccccc1`
output: 8

input: How about `CCCCCCCCCCCCc1cn(-c2ccc(C)cc2)n[n+]1Cc1ccccc1` ?
output: 2

input: And the next one, `CCCCCCCCc1cn(-c2ccc(C)cc2)n[n+]1Cc1ccccc1` ?
output: 8

input: What do we get for `CCCCCCCCCCCCc1cn(Cc2ccccc2)n[n+]1Cc1ccccc1` ?
output: 4

input: `CCCCc1cn(-c2ccc(C)cc2)n[n+]1Cc1ccc(C(C)(C)C)cc1` , same question.
output: 4

input: What do you have for `CCCCCCCCc1cn(Cc2ccccc2)n[n+]1Cc1ccc(C(C)(C)C)cc1` ?
output: 2

input: Field entry: `CCCCCCCCc1cn(-c2ccc(C)cc2)n[n+]1Cc1ccc(C(C)(C)C)cc1`
output: 2
